Data origin, for the record: patent US20240132431A1

Collected ASMS ratio (%) values appear next to each entry.
Biological target: Bcl-2 protein (Recombinant Human Bcl-2 Protein) (Homo sapiens)
Construct: purchased Novus NBP2-34889
Sequence (P10415 whole entry): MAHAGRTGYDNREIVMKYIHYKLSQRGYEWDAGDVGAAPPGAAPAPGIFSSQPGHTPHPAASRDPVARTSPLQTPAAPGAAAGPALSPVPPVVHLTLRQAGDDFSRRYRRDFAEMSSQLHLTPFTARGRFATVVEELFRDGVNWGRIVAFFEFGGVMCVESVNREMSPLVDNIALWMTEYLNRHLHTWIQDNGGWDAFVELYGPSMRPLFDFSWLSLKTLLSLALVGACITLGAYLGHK
Assay: Binding evaluation of mixture library compounds to Bcl-2 using AS-MS (affinity selection mass spectrometry)
Settings: n = 2
Answer in %, number only, no unit symbol.

Please review the following examples before continuing.
entry smiles: CCOc1cncc(-c2csc(CN3CCN(c4ccc(C(=O)NS(=O)(=O)c5ccc(NCCSc6ccccc6)c(C(F)(F)F)c5)nn4)CC3)c2)c1
measurement target: Bcl-2 protein (Recombinant Human Bcl-2 Protein) (Homo sapiens)
result units: %
ASMS ratio (%): 11.9

entry smiles: CCOc1cncc(-c2cc(CN3CCN(c4ccc(C(=O)NS(=O)(=O)c5ccc(NCCSc6ccccc6)c(C(F)(F)F)c5)cc4)CC3)cc(OCC)c2)c1
measurement target: Bcl-2 protein (Recombinant Human Bcl-2 Protein) (Homo sapiens)
result units: %
ASMS ratio (%): −63.9

Please give the documented ASMS ratio (%) of "CCOc1cncc(C#Cc2cc(C(=O)N3CCN(c4ccc(C(=O)NS(=O)(=O)CCC(F)(F)F)nn4)CC3)cc(C(F)(F)F)c2)c1"
0.0

Please give the documented ASMS ratio (%) of "CCOc1cccc(-c2ccc(CN3CCN(c4ccc(C(=O)NS(=O)(=O)c5ccc(NCCSc6ccccc6)c(C(F)(F)F)c5)nn4)CC3)c(CC)c2)c1"
0.0

Please give the documented ASMS ratio (%) of "CCOc1cccc(-c2ccc(CN3CCN(c4ccc(C(=O)NS(=O)(=O)CCC(F)(F)F)nn4)CC3)cc2F)c1"
0.0

Please give the documented ASMS ratio (%) of "CCOc1cncc(-c2cc(CN3CCN(c4ccc(C(=O)NS(=O)(=O)CCC(F)(F)F)nn4)CC3)cc(OCC)c2)c1"
2.8

* * *

Collected ASMS ratio (%) n = 2 values appear next to each entry.
Target: Bcl-2 protein (Recombinant Human Bcl-2 Protein) (Homo sapiens)
Construct: purchased Novus NBP2-34889
Test: Binding evaluation of mixture library compounds to Bcl-2 using AS-MS (affinity selection mass spectrometry)
Settings: AS-MS on the mixture of 1200 library compounds; ASMS Ratio(%)=(A−C)/B×100; replicate n = 2
Answer in %, number only, no unit symbol.

Please review the following examples before continuing.
molecule: CCOc1cccc(-c2ccccc2CCC(=O)N2CCN(c3ccc(C(=O)Nc4ccc(OC)cc4)nn3)CC2)c1 [B1O011-01]
ASMS ratio (%) n = 2: 4.3
//
molecule: CCOc1cncc(-c2ccc(CN3CCN(c4ccc(C(=O)N(C)CC56CC7CC(CC(C7)C5)C6)nn4)CC3)c(OC)c2)c1 [B3A080-01]
ASMS ratio (%) n = 2: −1.8
//
molecule: CCOc1cncc(-c2ccc(C(=O)N3CCN(c4ccc(C(=O)N(C)CC56CC7CC(CC(C7)C5)C6)nn4)CC3)c3ccccc23)c1 [B3A014-01]
ASMS ratio (%) n = 2: 0.8
//
molecule: CCOc1cncc(-c2ccccc2CN2CCN(c3ccc(C(=O)N(C)CC45CC6CC(CC(C6)C4)C5)cc3)CC2)c1 [B3A046-01]
ASMS ratio (%) n = 2: 3.6
//
molecule: CCOc1cncc(-c2ccc(C(=O)N3CCN(c4ccc(C(=O)N(CC)CC)nn4)CC3)c3ccccc23)c1 [B4J014-01]
ASMS ratio (%) n = 2: −0.8

Please give the documented ASMS ratio (%) n = 2 of CCOc1cccc(-c2ccccc2CN2CCN(c3ccc(C(=O)Nc4ccc(OC)cc4)nn3)CC2)c1 [B1O071-01]
−1.1

Please give the documented ASMS ratio (%) n = 2 of CCOc1cccc(-c2cc(CN3CCN(c4ccc(C(=O)Nc5ccc(OC)cc5)nn4)CC3)cc(OC(F)(F)F)c2)c1 [B1O089-01]
−5.3

Please give the documented ASMS ratio (%) n = 2 of CCOc1cncc(-c2cc(CN3CCN(c4ccc(C(=O)Nc5ccc(OC)cc5)nn4)CC3)cc(C(F)(F)F)c2)c1 [B1O088-01]
1.4

Please give the documented ASMS ratio (%) n = 2 of CCOc1cncc(C#Cc2ccccc2CN2CCN(c3ccc(C(=O)Nc4ccc(OC)cc4)nn3)CC2)c1 [B1O096-01]
3.5
